These measurements were taken from PubChem BioAssay (NCI).

# RUN DESCRIPTION: NCI Yeast Anticancer Drug Screen. Data for the sgs1 mgt1 strain (AID 161);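 also: 0% = growth of cultures given vehicle only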
# REPORTED CONDITIONS: S. cerevisiae sgs1 mgt1 strain, at 50.0 µM, stronger effect = higher value
# Protocol: Growth inhibition of yeast strains with defined genetic alterations is measured as a screen for potential anti-cancer activity. Selected strains with alterations in DNA damage repair or cell cycle control were exposed to compounds and growth inhibition was measured relative to vehicle treated controls. The strain used in this assay is sgs1 mgt1
About 79,000 compounds went through this panel and 15% of them were active in at least one assay; those are over-represented in the sample as a whole.
METRIC NAME: growth inhibition (%)

| COMPOUND | DATA VALUE |
| --- | --- |
| CC(C)[C@@]12O[C@@H]1CC13OC1[C@@H](O)CC[C@@]32O (some centres undefined) | -2.8 |
| CC(=O)Nc1nnnn1C | 0.45 |
| COc1ccc(NC(=O)N(C)C)cc1OC | -4.2 |
| O=C(OCCN1CCOCC1)C1C[C@@H](O)CN1C(=O)c1ccc2c(c1)OCO2 (some centres undefined) | 7.7 |
| Cc1[nH]n(C(=O)c2ccc(Cl)cc2)c(=O)c1/C=C1\C(O)=CC(=O)c2ccccc21 | 18.7 |
| CC(C)CC(CN(C)C)C(=O)/C=C/c1ccccc1 (centres undefined) | 19.4 |
| CC(=O)c1ccc(N=C2C=CC(=O)O2)cc1 | -11.1 |
| CC(=O)Nc1ccc(Sc2ccc(NC(C)=O)cc2O)c(O)c1 | 32 |
| CC(=O)Oc1ccc(-c2ccccc2)cc1 | 16 |
| CCCSc1ccc([N+](=O)[O-])cc1[N+](=O)[O-] | 25.2 |
| Cc1ccc(N=NC2=C3Sc4ccccc4N=C2N(c2ccc(Br)cc2)C(=S)N3c2ccc(Cl)cc2)cc1 | -21.4 |
| CCC(=O)Nc1ccc(C)cc1C | 9.8 |
| O=C1c2ccccc2CN(C(=Nc2ccccc2)Nc2ccccc2)c2ccccc21 | -0.55 |
| COC1OCC(NC(C)=O)C(OC(C)=O)C1OC(C)=O (centres undefined) | -4.1 |
| CCOC(=O)CC(O)(c1ccccc1)c1ccccc1 | 7.35 |
| Oc1ccccc1/C=N/c1nc(-c2ccccc2)cs1.[Co].[O-]c1ccccc1/C=N/c1nc(-c2ccccc2)cs1 | 9.8 |
| CC1(C)NC(=S)NC1=S | -13.9 |
| c1ccc(C2=NOC(c3ccccc3)N2C23CC4CC(CC(C4)C2)C3)cc1 (centres undefined) | -17.5 |
| COc1ccc(/C(Br)=C2\OC(=O)c3ccccc32)cc1 | -13.4 |
| CCOC1=C2C(C)(CCC3[C@@]4(C)C=CC(=O)C(C)(C)C4CC(O)[C@@]23C)C(c2ccoc2)C1=O (some centres undefined) | 45.5 |
| CCc1c(O)c2c([nH]c1=O)SC(C)(C)CC2=NCC(C)C | -16.9 |
| O=[N+]([O-])c1ccccc1SSc1ccccc1[N+](=O)[O-] | -36.5 |
| COc1ccc(NC(=O)CC(=O)N2N=C(N(CCC#N)c3ccc(Cl)cc3)CC2c2ccccc2)cc1 (centres undefined) | -1.55 |
| C=C(Nc1ccc(OC)cc1OC)C(=O)Cc1cccc[n+]1[O-] | -10.5 |
| CCCCC(O)C(=O)NCCC(=O)c1ccccc1 (centres undefined) | 3.45 |
| CCN(CC)C(=O)Cn1c2c(c3ccccc31)CCCC2 | 2.2 |
| Cc1cc(=O)oc2ccccc12 | 10.9 |
| CCCCn1cnc2c(SCCNC(=O)N(C)N=O)ncnc21 | 10.3 |
| CN(C)c1ccc(N=C2C=CC(=C(C#N)C#N)c3ccccc32)cc1 | -14.2 |
| CN1CCN(S(=O)(=O)C(c2ccccc2)C2(O)CCCCC2)CC1 (centres undefined) | 9.05 |
| O=C1CCc2nc(=O)c3c4ccccc4ccc3n21 | -5.35 |
| O=C(Cn1c2c(c3ccccc31)CCCC2)N1CCCC1 | 0.05 |
| CCOC(=O)Cn1c(=O)c2ccccc2c2cc([N+](=O)[O-])ccc21 | 13.2 |
| Cc1cc(S(=O)(=O)Nc2n[nH]c(N)n2)c(SCC(=O)O)cc1Cl | -27.6 |
| O=C1CC(=O)N(C=C2C(=O)NC(=O)NC2=O)C(=S)N1 | -18.6 |
| O=C(O)C12CCC(CC1=O)C2 (centres undefined) | 11.3 |
| O=C1c2ccccc2C(=O)N1Cc1ccccc1-c1c2nc(c(-c3ccccc3CN3C(=O)c4ccccc4C3=O)c3ccc([nH]3)c(-c3ccccc3CN3C(=O)c4ccccc4C3=O)c3nc(c(-c4ccccc4CN4C(=O)c5ccccc5C4=O)c4ccc1[nH]4)C=C3)C=C2 | -0.8 |
| Cc1ccc(CNC(=O)Nc2c(C)cccc2C)cc1C | 9.75 |
| O=C(NCCCCC[N+](CCCCCNC(=O)c1ccccc1)(CCCCCNC(=O)c1ccccc1)CCCCCNC(=O)c1ccccc1)c1ccccc1 | -15.2 |
| O=C1c2ccccc2C(O)(c2ccc(O)cc2)c2ccccc21 | -0.95 |
| COc1ccc(-c2cc(N3CCN(c4ccccc4)CC3)c(C#N)c(=O)o2)cc1 | 18.5 |
| Cc1cc2c(C)nn(Cc3ccc(Cl)cc3)c2c(C#N)c1C | 15.6 |
| COc1cc2c(SCCN(C)C)nc3ccccc3c2c2ccccc12 | 90.8 |
| C=C1CC[C@H]2C(C)=CC[C@@H]3[C@H](OC(=O)[C@H]3COC)[C@@H]12 | -11.5 |
